Target: PARS (Mus musculus)
Construct: endogenous in cells
Sequence (P11103 whole entry): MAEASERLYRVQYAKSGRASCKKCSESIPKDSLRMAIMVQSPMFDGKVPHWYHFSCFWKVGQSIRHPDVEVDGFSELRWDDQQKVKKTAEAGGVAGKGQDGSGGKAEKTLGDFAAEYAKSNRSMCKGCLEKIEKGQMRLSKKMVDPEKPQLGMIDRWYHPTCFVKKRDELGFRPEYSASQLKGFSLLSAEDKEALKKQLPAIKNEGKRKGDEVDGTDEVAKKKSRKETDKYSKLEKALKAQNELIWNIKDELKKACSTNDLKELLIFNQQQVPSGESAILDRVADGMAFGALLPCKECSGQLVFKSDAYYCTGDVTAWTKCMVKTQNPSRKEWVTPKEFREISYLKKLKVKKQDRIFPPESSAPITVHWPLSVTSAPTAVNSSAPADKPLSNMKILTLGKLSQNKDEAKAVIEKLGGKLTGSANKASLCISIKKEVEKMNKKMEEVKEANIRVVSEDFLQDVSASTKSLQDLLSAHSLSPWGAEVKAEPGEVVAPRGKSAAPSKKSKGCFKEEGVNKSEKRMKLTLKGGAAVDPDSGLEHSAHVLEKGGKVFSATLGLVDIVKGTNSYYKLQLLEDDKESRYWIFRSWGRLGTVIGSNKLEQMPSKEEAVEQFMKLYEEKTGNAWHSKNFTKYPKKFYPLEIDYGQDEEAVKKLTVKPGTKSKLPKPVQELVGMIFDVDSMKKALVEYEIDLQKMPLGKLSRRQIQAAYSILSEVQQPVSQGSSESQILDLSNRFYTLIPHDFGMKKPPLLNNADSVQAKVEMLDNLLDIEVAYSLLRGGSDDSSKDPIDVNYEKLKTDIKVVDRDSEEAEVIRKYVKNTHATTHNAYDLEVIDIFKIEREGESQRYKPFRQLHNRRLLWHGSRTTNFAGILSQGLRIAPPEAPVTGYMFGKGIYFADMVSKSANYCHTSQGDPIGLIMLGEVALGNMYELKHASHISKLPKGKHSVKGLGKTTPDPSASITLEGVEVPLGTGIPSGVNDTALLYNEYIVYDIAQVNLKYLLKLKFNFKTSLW
Test: Cell protection assay: PARS activity in peroxynitrite-treated Raw murine macrophages
Conditions: compound 15 min before peroxynitrite (750 μM) for 15 min, PARS activity by 3H-NAD incorporation, EC50 from dose-response curve
pEC50: −log10 of the molar value.
Readout Name: pEC50

>  <Compound>
O=C(NCCCN1CCOCC1)c1ccc2c(c1)Cc1c-2[nH]c(=O)c2ccccc12 [Compound 14b]

>  <Recorded Number>
5.96

$$$$
>  <Compound>
O=C(NCCN1CCOCC1)c1ccc2c(c1)Cc1c-2[nH]c(=O)c2ccccc12 [Compound 14a]

>  <Recorded Number>
5.96

$$$$
>  <Compound>
CN(C)CCCNC(=O)c1ccc2c(c1)Cc1c-2[nH]c(=O)c2ccccc12 [Compound 13b]

>  <Recorded Number>
6.05

$$$$
